Listed next: entries and their corresponding PBM binding z-score.
System: PPARg homodimer (NR concentration 180 nM)
Assay: PBM binding z-score (relative to random genomic background probes); higher = stronger binding; sequences stand for … in GC…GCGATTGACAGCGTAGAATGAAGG
Measure: PBM binding z-score

# Sequence entry, Study system, Numeric value
records = [
    ("CAAACTAGGTCAAGGTCAAATTCGGTTTGTGCCA", "PPARg homodimer (NR concentration 180 nM)", 4.71),
    ("CCTGCTAGGACAATGGTCAGCTAAAGCAGCTCGC", "PPARg homodimer (NR concentration 180 nM)", -1.14),
    ("CGAACTAGGTCAAAGGGCAGTGAAAGGCGACGTA", "PPARg homodimer (NR concentration 180 nM)", 2.2),
    ("CAACCTAGGTCACCGGAAGGTCAAAGTCCGCATG", "PPARg homodimer (NR concentration 180 nM)", 8.27),
    ("AGACAAAGTTCAGGACGAGGTAACGTAAAGCACG", "PPARg homodimer (NR concentration 180 nM)", 1.38),
    ("CCTAGTTGGGCAGGAGGTCACACACCGGATATGA", "PPARg homodimer (NR concentration 180 nM)", 2.16),
    ("CTATGTCGGTTAAGGGGGTCATTCAGTTTGAAAG", "PPARg homodimer (NR concentration 180 nM)", 6.84),
    ("TCGAGTAGGTTACAGGGGCATTCAGGGATGAAGA", "PPARg homodimer (NR concentration 180 nM)", 0.898),
    ("AGTAAAAGTTCACTAGGTAACGTAAGATTCAGCT", "PPARg homodimer (NR concentration 180 nM)", 2.48),
    ("CGAACTAGGTCAAAGGCCAGTGAAAGGCGACGTA", "PPARg homodimer (NR concentration 180 nM)", 1.42),
    ("ATCGAAAGGTCGAAGGTGAGTACACCCACCCGAA", "PPARg homodimer (NR concentration 180 nM)", 1.98),
]

Source of measurements: the supplement of paper PMC6555819
